measured.attribute: melting point

*Q* So what's the measured melting point for this one? NC(=O)[C@H]1CN(c2ccc(N3CC[S+]([O-])CC3)c(F)c2)C(=O)O1
*A* 264 to 266 °C (dec.)

*Q* So what's the measured melting point for this one? NC(=O)[C@H]1CN(c2cc(F)c(N3CCOCC3)c(F)c2)C(=O)O1
*A* 181 to 183 °C

*Q* So what's the measured melting point for this one? NC(=O)[C@H]1CN(c2ccc(C3CCS(=O)(=O)CC3)cc2)C(=O)O1
*A* 211 to 212 °C

*Q* So what's the measured melting point for this one? NC(=O)[C@H]1CN(c2ccc(N3CCOCC3)c(F)c2)C(=O)O1
*A* 185 to 187 °C (dec.)
